Values were extracted from patent US11759461B2.

# Test system: FOXC2-expressing HMLER cells
# EXPERIMENT: Cell Titer Glo viability of FOXC2-HMLER cells (high throughput screen and 10-point response)
# Assay type: cell-based
# TEST SETTINGS: Homo sapiens; scored relative to parent compound 3; 72 hours; read-out: Activity Score, inhibition of FOXC2-expressing HMLER cells by Formula III compounds
MEASURED METRIC: IC50

Known results for molecules:
                            molecule_smiles  measured_metric   result
0  Cc1c(C(=O)N2CCN(c3cccc(Cl)c3)CC2)cccc1-n1nnc2cccnc21             IC50   < 1 µM
1  Cc1c(C(=O)NC2CCCCCC2)cccc1-n1nnc2cccnc21             IC50  > 20 µM
2  COc1ccc(N2CCN(CCCNC(=O)c3cccc(-n4nnc5cccnc54)c3C)CC2)cc1             IC50  > 20 µM

Turning now to a further molecule:
**Q:** Report IC50 for Cc1ccc(C(=O)N2CCC(Cc3ccccc3)CC2)cc1-n1nnc2cccnc21 tested on FOXC2-expressing HMLER cells.
**A:** 1 to 20 µM
